System: NCI-H226 lung
Protocol: NCI-60 one-dose screen, 48 h (100 = growth as untreated, 0 = no growth, -100 = all killed)
Settings: 10 µM unless noted
This is part of a sample that, as a whole, favours compounds with a hit. Of some 83,000 tested, about 20% had one in any assay.
Classify: Criterion met when growth is strictly less than 70%; Criterion not met when growth is not.

- Molecule: "Clc1cccc(CNc2c3ccccc3nc3ccccc23)c1"
  Category Label: "Criterion met"
- Molecule: "O=C1CCCN1C1CCN2CCCc3cccc1c32 (stereo unspecified)"
  Category Label: "Criterion not met"
- Molecule: "CN1CCC2(CC1)N=C(SCC(=O)Nc1cnc3ccccc3c1)C(c1ccc(Br)cc1)=N2"
  Category Label: "Criterion met"
- Molecule: "CC(=O)O[C@@H]1CC2C(C)(C)CCCC2(C)C2=C1C(=O)C(C(C)C)=CC2=O (stereo partly specified)"
  Category Label: "Criterion met"
- Molecule: "CCCCCCCC/C=C/CCCCCCCC1=NC(C)(C)CN1C(C)C"
  Category Label: "Criterion met"
- Molecule: "OCCN(CCO)c1ccc2ccccc2c1"
  Category Label: "Criterion not met"
- Molecule: "O=C1SCN(Cc2ccccc2)CN1Cc1ccccc1"
  Category Label: "Criterion not met"
- Molecule: "CCCCCCCC/C=C/CCCCCCCC1=NC(C)(C)CN1c1ccccc1"
  Category Label: "Criterion not met"
- Molecule: "CCCCCCCCCCCCCC"
  Category Label: "Criterion not met"
- Molecule: "COc1ccc(C(=O)OC2C(OC3C(O)COC(O[C@H]4C[C@H]5[C@@H]6CC=C7C[C@@H](O)CC[C@]7(C)[C@H]6CC[C@]5(C)[C@H]4[C@H](C)C(=O)CCC(C)C)C3OC(N)=O)OCC(O)C2O)cc1 (stereo partly specified)"
  Category Label: "Criterion met"
- Molecule: "O=C1/C(=C/c2cc(F)cc(F)c2)Cc2cc(F)cc(F)c21"
  Category Label: "Criterion not met"
- Molecule: "COc1ccc(-c2cc(-c3cn(-c4cccc(Cl)c4)nc3-c3ccc(OC)cc3)[nH]c(=S)n2)cc1"
  Category Label: "Criterion not met"
- Molecule: "O=C1Nc2ccc(Cl)cc2/C1=C\\c1c(-c2ccc(F)cc2)nc2ccccn12"
  Category Label: "Criterion met"
- Molecule: "COc1ccc(-c2cc(C(=O)Nc3ccc(C)cc3)nc3[nH]c(=O)sc23)cc1"
  Category Label: "Criterion not met"
- Molecule: "CC(C)(C)c1nn(-c2ccccc2)c2c1C(=O)CSC(c1ccc3c(c1)OCO3)N2 (stereo unspecified)"
  Category Label: "Criterion not met"
- Molecule: "OC(CCCCCCCCC(O)CN1CCc2ccccc2C1)CN1CCc2ccccc2C1 (stereo unspecified)"
  Category Label: "Criterion not met"
- Molecule: "COc1cc(C)c(Cl)cc1C1=NN(c2ccc(S(N)(=O)=O)cc2)C(/C=C/c2ccccc2)C1 (stereo unspecified)"
  Category Label: "Criterion met"
- Molecule: "COc1nccc2c(Sc3ccccc3)nc(N)nc12"
  Category Label: "Criterion not met"
- Molecule: "NC(CCC(=O)NC(CS)C(=O)NCC(=O)O)C(=O)O (stereo unspecified)"
  Category Label: "Criterion not met"
- Molecule: "CCN1C(=O)N(CC)C2C1N=C(SC)N2/N=C/C=C/c1ccccc1OC (stereo unspecified)"
  Category Label: "Criterion met"

###

Tested on: NCI-H23 lung
Protocol: NCI-60 one-dose screen, 48 h
Settings: 10 µM unless noted
About 83,000 compounds went through this panel and 20% of them were active in at least one assay; those are over-represented in the sample as a whole. Calls of active or inactive are those of the source. How the source made its calls: active means growth percent below 10; inactive means the rest.
Classes used: 1.0 (active), 0.0 (inactive)

- Compound: "O=C1NN(C(=O)c2ccccc2)C(c2ccc(Cl)c(Cl)c2)=C/C1=C\\c1ccccc1[N+](=O)[O-]"
  Target Entity: "NCI-H23 lung"
  Category Label: 1.0
- Compound: "FC(F)(F)c1nn[nH]n1"
  Target Entity: "NCI-H23 lung"
  Category Label: 0.0
- Compound: "CC(C)CCC(=O)[C@@H](C)[C@H]1[C@@H](OC2OCC(O)C(O)C2NS(C)(=O)=O)C[C@H]2[C@@H]3CC=C4C[C@@H](O)CC[C@]4(C)[C@H]3CC[C@]12C (some centres undefined)"
  Target Entity: "NCI-H23 lung"
  Category Label: 0.0
- Compound: "Cc1nc(N)nc2c1CCC(Nc1ccccc1)S2 (centres undefined)"
  Target Entity: "NCI-H23 lung"
  Category Label: 0.0
- Compound: "O=C1Nc2ccccc2/C1=C\\c1nc(C2CCN(S(=O)(=O)c3ccc(F)cc3)CC2)n2ccccc12"
  Target Entity: "NCI-H23 lung"
  Category Label: 0.0
- Compound: "O=[N+]([O-])c1ccc(SSc2ccc([N+](=O)[O-])cc2Cl)c(Cl)c1"
  Target Entity: "NCI-H23 lung"
  Category Label: 0.0
- Compound: "COc1ccccc1/C=N\\Nc1ccc([N+](=O)[O-])cn1"
  Target Entity: "NCI-H23 lung"
  Category Label: 0.0
- Compound: "O=C(Nc1cccc(-n2ccc3c(NC(=O)c4ccccc4)nccc32)c1)c1ccc(N2CCOCC2)c(C(F)(F)F)c1"
  Target Entity: "NCI-H23 lung"
  Category Label: 0.0
- Compound: "CCN1C(=O)N(CC)C2C1NC(=O)N2/N=C/C=C/c1ccccc1 (centres undefined)"
  Target Entity: "NCI-H23 lung"
  Category Label: 0.0

###

System: EKVX NSCLC
Protocol: NCI-60 one-dose screen, 48 h (100 = growth as untreated, 0 = no growth, -100 = all killed)
Settings: 10 µM unless noted
Compounds without any hit were thinned out: in the full panel of roughly 83,000, 20% have a hit.
Each entry below lists one item and its recorded growth value.
Readout Name: growth (%)

- Compound: "N=c1nc(N2CCCCC2)cc(N)n1O"
  Readout Name: "growth"
  Recorded Number: 108
- Compound: "COc1ccc(-c2cc(-c3cc4ccccc4oc3=O)n(-c3ccccc3)n2)cc1"
  Readout Name: "growth"
  Recorded Number: 67.5
- Compound: "Cc1cc([N+](=O)[O-])c(C)cc1N"
  Readout Name: "growth"
  Recorded Number: 101
- Compound: "O/N=C/c1ccncc1"
  Readout Name: "growth"
  Recorded Number: 100
- Compound: "CN1C(=O)N(C)C2C1NN=c1s/c(=C\\c3ccsc3)c(=O)n12 (stereo unspecified)"
  Readout Name: "growth"
  Recorded Number: 65.8
- Compound: "CCN(CC)C(=O)O/N=C(/C)c1ccccc1"
  Readout Name: "growth"
  Recorded Number: 112
- Compound: "Cc1ccc(C(CN(C)C)C(=O)c2ccccc2)cc1 (stereo unspecified)"
  Readout Name: "growth"
  Recorded Number: 68.7
- Compound: "c1coc(CNc2c3ccccc3nc3ccccc23)c1"
  Readout Name: "growth"
  Recorded Number: 62.1
- Compound: "CC1CCN(CCCCCOc2ccc3oc4ccc(Cl)cc4c(=O)c3c2)CC1"
  Readout Name: "growth"
  Recorded Number: 75.1
- Compound: "CCOC(=O)N1C2CCC(C2)N1C(=O)OCC"
  Readout Name: "growth"
  Recorded Number: 113
- Compound: "COc1cc2ncnc(Nc3ccc(S(=O)(=O)Nc4nccs4)cc3)c2cc1OCCCN1CCOCC1"
  Readout Name: "growth"
  Recorded Number: 111
- Compound: "O=S(=O)(Nc1ccc2ccccc2c1)N1CCCCC1"
  Readout Name: "growth"
  Recorded Number: 81
- Compound: "COc1ccc(C2=NNC(c3ccc(Oc4nc5c(c(=O)n(C)c(=O)n5C)n4C)c(OC)c3)C2)cc1 (stereo unspecified)"
  Readout Name: "growth"
  Recorded Number: 97.7
- Compound: "CC(C)CCC(=O)[C@@H](C)[C@H]1[C@@H](OC2OCC(O)C(O)C2NS(C)(=O)=O)C[C@H]2[C@@H]3CC=C4C[C@@H](O)CC[C@]4(C)[C@H]3CC[C@]12C (stereo partly specified)"
  Readout Name: "growth"
  Recorded Number: 27.7
- Compound: "COc1ccc2c(c1)N(Cc1ccc(Cl)cc1)CCC2N1CCCC1=O (stereo unspecified)"
  Readout Name: "growth"
  Recorded Number: 36.9
- Compound: "C=C(C)[C@@H]1CC[C@]2(C(=O)O)CC[C@]3(C)[C@H](CC[C@@H]4[C@@]5(C)C[C@@H](CC#Cc6ccc(C(C)=O)s6)[C@H](O)C(C)(C)[C@@H]5CC[C@]43C)[C@@H]12"
  Readout Name: "growth"
  Recorded Number: 53.2
- Compound: "C[Si](C)(C)C(c1ccccc1)c1ccccc1"
  Readout Name: "growth"
  Recorded Number: 109
- Compound: "COc1ccc2nc3ccccc3c(NCc3ccc(Cl)cc3)c2c1"
  Readout Name: "growth"
  Recorded Number: 33.8
- Compound: "Cc1cc(O)ccc1Sc1ccccc1[N+](=O)[O-]"
  Readout Name: "growth"
  Recorded Number: 74.8
- Compound: "COc1ccc(/C(C)=N/NC(=O)CSc2nc3ccccc3c(=O)n2CCc2ccc(S(N)(=O)=O)cc2)cc1"
  Readout Name: "growth"
  Recorded Number: 87.3
- Compound: "C=C1C(=O)O[C@H]2[C@H]1CC/C(COC(=O)NCc1ccc(Cn3c(=O)sn(CCCl)c3=O)cc1)=C\\CC[C@@]1(C)O[C@@H]21"
  Readout Name: "growth"
  Recorded Number: 83.6
